Origin of the recorded values: patent US20240246964A1

biological target: human PD-L1 (Homo sapiens (Human), UniProt Q9NZQ7); test: T cell activation luciferase reporter cell culture system (T Cell Activation Assay); type: cell-based; settings: luciferase reporter assay; PD-L1 aAPC/CHO-K1 cells with PD-1 effector Jurkat T cells
Sequence (Q9NZQ7 19-290): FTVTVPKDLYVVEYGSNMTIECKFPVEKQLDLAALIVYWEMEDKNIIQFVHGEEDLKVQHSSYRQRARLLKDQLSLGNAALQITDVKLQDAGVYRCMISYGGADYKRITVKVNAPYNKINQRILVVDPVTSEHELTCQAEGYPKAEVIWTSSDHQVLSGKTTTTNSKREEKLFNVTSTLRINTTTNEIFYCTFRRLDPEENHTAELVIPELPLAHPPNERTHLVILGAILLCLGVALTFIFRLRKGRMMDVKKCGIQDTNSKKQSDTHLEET
pEC50: −log10 of the molar value.
Decision: pEC50 compared against 7; not below it gives y, below it gives n.

1) COc1cc(-c2nccc(-c3cccc(-c4ccc(CNC[C@H](C)O)c(OC)n4)c3C(F)(F)F)c2Cl)ccc1CNC[C@H](C)O [Example 580]: n
2) COc1cc(-c2nccc(-c3cccc(-c4ccc(CNC5CCN(c6ncccc6Cl)CC5)c(OC)n4)c3Cl)c2Cl)ccc1CNC1CCN(c2ncccc2Cl)CC1 [Example 445]: n
3) COc1nc(-c2cccc(-c3ccnc(-c4ccc(CNC5CCOCC5)c(OC(F)F)c4)c3Cl)c2Cl)ccc1CNC1CCOCC1 [Example 618]: y
4) COc1cc(-c2nccc(-c3cccc(-c4ccc(CN5CCC(NC(C)=O)CC5)c(OC)n4)c3Cl)c2Cl)ccc1CN1CC2(CNC(=O)C2)C1 [Example 355]: y
5) COc1cc(-c2ncnc(-c3cccc(NC(=O)c4cn(C)c(=O)n(C)c4=O)c3Cl)c2Cl)ccc1CNC[C@@H]1CCC(=O)N1 [Compound 708]: n
6) COc1nc(-c2cccc(-c3nccc(-c4ccc(CN5CC6(CCN(C(C)=O)C6)C5)c(OC)n4)c3Cl)c2Cl)ccc1CN1CC2(CCN(C(C)=O)C2)C1 [Example 760]: y
7) COc1cc(-c2nccc(-c3cccc(-c4ccc(CNC5CCN(CC(F)F)CC5)c(OC)n4)c3Cl)c2Cl)ccc1CNC1CCN(CC(F)F)CC1 [Example 420]: y
8) COc1cc(-c2nccc(-c3cccc(-c4ccc(CN5CCC(NC(C)=O)CC5)c(OC)n4)c3Cl)c2Cl)ccc1CNC[C@@H]1CCC(=O)N1 [Example 357]: y

* * *

target: human PD-L1 (Homo sapiens (Human), UniProt Q9NZQ7); assay: T cell activation luciferase reporter cell culture system (T Cell Activation Assay); assay type: cell-based; settings: luciferase reporter assay; PD-L1 aAPC/CHO-K1 cells with PD-1 effector Jurkat T cells
pEC50: −log10 of the molar value.
Form field: pEC50 (one value per entry).
PROPERTY: pEC50

1) COc1cc(-c2nccc(-c3cccc(-c4cc(F)c(CNC[C@@H]5CCC(=O)N5)c(OC)n4)c3Cl)c2Cl)cc2c1CN(CCO)CC2 [Compound 132]: 7.29
2) COc1cc(-c2nccc(-c3cccc(NC(=O)c4ccc(CNCCO)cn4)c3Cl)c2Cl)ccc1CN1CC2(C1)CN(C(C)=O)C2 [Example 757]: 7.06
3) COc1cc(-c2nccc(-c3cccc(-c4ccc(CNC[C@@H]5CCC(=O)N5)c(OC)n4)c3Cl)c2Cl)ccc1CNC1CCS(=O)(=O)CC1 [Cmpd 126]: 7.43

* * *

target: human PD-L1 (Homo sapiens (Human)); assay: T cell activation luciferase reporter cell culture system (T Cell Activation Assay); assay type: cell-based; details: luciferase reporter assay; PD-L1 aAPC/CHO-K1 cells with PD-1 effector Jurkat T cells
PROPERTY: EC50 (nM)

1) COc1cc(-c2nccc(-c3cccc(-c4ccc5c(CNC[C@@H]6CCC(=O)N6)cn(C)c5n4)c3Cl)c2Cl)ccc1CNC[C@@H]1CCC(=O)N1 [Compound 17]: 29.2
2) COc1cc(-c2nccc(-c3cccc(-c4ccc(CN5CC6(C5)CN(C(C)=O)C6)c(OC)n4)c3C#N)c2Cl)ccc1CN1CC2(C1)CN(C(C)=O)C2 [Example 636]: 1270
3) COc1cc(-c2nccc(-c3cccc(-c4ccc(CN[C@H]5CC[C@H](OC)CC5)c(OC)n4)c3Cl)c2Cl)ccc1CN[C@H]1CC[C@H](OC)CC1 [Example 450]: 54.7
4) COc1cc(-c2nccc(-c3cccc(-c4ccc(CNC5CCOCC5)c(OC)n4)c3Cl)c2Cl)ccc1CNC1CCOCC1 [Example 298]: 14.6
5) COc1cc(-c2nccc(-c3cccc(NC(=O)c4ccc(CNC[C@@H]5CCC(=O)N5)cn4)c3C)c2Cl)ccc1CNCCCF [Example 749]: 461
6) COc1cc(-c2nccc(-c3cccc(-c4ccc(CNC[C@@H]5CCC(=O)N5)c(OC)n4)c3Cl)c2Cl)cc2c1CN(C[C@H]1C[C@@H](O)C1)CC2 [Cmpd 134]: 23
7) COc1cc(-c2nccc(-c3cccc(-c4ccc(CNC5CCN(C(C)=O)CC5)c(OC)n4)c3Cl)c2Cl)ccc1CN[C@@H]1COC(=O)C1 [Example 338]: 96.3
8) COC(=O)C1CN(Cc2nn3cc(-c4nccc(-c5cccc(-c6ccc(CNC[C@@H]7CCC(=O)N7)c(OC)n6)c5Cl)c4Cl)cc3c(=O)n2C)C1 [Compound 182]: 38.7
9) COc1cc(-c2nccc(-c3cccc(-c4ccc(CNC5CCN(C(C)=O)CC5)c(OC)n4)c3Cl)c2Cl)cc2c1CN(C1CCN(CC(=O)O)C1=O)CC2 (stereo not drawn) [Example 480]: 1490
10) COCCC(=O)N1CCC(NCc2ccc(-c3cccc(-c4ccnc(-c5ccc(CN6CC7(CNC(=O)C7)C6)c(OC)c5)c4Cl)c3Cl)nc2OC)CC1 [Example 625]: 20.8
11) COc1nc(-c2cccc(-c3ccnc(-c4cc(OC)c5nc(CNCCC6(C(=O)O)CC6)nn5c4)c3Cl)c2Cl)ccc1CNC[C@@H]1CCC(=O)N1 [Example 262]: 82.8
12) COc1cc(-c2nccc(-c3cccc(-c4ccc(CNC5CCN(C(C)=O)CC5)c(OC)n4)c3Cl)c2Cl)ccc1CN1CCC(C)(N)CC1 [Example 406]: 62.7

* * *

Measured EC50 values are reported for all entries that follow.
biological target: human PD-L1 (Homo sapiens (Human)); assay: T cell activation luciferase reporter cell culture system (T Cell Activation Assay); assay type: cell-based; settings: luciferase reporter assay; PD-L1 aAPC/CHO-K1 cells with PD-1 effector Jurkat T cells
PROPERTY: EC50

1) COc1nc(-c2cccc(-c3ccnc(-c4ccc5c(CNC[C@@H]6CCC(=O)N6)nn(C)c5c4)c3Cl)c2Cl)ccc1CNC[C@@H]1CCC(=O)N1: 44.9 nM
2) COc1cc(-c2nccc(-c3cccc(-c4ccc(CNC5CCN(C(=O)C(C)C)CC5)c(OC)n4)c3Cl)c2Cl)cc(F)c1CNC1CCN(C(=O)C(C)C)CC1: 69.6 nM
3) COc1nc(-c2ccnc(-c3cccc4c3CC[C@@H]4Nc3nc(OC)c(CNC[C@@H]4CCC(=O)N4)cc3C(F)(F)F)c2Cl)ccc1CNC1CCN(C(C)=O)CC1: 114 nM
4) COc1nc(-c2ccnc(-c3cccc4c3CC[C@@H]4Nc3nc(OC)c(CNC[C@@H]4CCC(=O)N4)cc3C(F)(F)F)c2Cl)ccc1CNC[C@@H]1CCC(=O)N1: 16.7 nM
5) COc1cc(-c2nccc(-c3cccc(-c4ccc(CN5CCC(NC(C)=O)CC5)c(OC)n4)c3C)c2Cl)ccc1CN1CCC(NC(C)=O)CC1: ≥ 10000 nM
6) COc1cc(-c2nccc(-c3cccc(-c4ccc(CN5CCOCC5)c(OC)n4)c3Cl)c2Cl)ccc1CN1CCOCC1: ≥ 10000 nM
7) COc1nc(-c2cccc(-c3ccnc(-c4cc(OC)c5nc(CN6CC7(CNC(=O)C7)C6)nn5c4)c3Cl)c2Cl)ccc1CNC1CCN(C(C)=O)CC1: 82.2 nM
8) COc1nc(-c2cccc(-c3ccnc(-c4cc5c(=O)n(C)c(CN6CC(C)(O)C6)nn5c4)c3Cl)c2Cl)ccc1CN[C@H]1CC[C@H](O)CC1: 143 nM
9) COc1cc(-c2nccc(-c3cccc(-c4ccc(CN5CC6(CC(=O)N(C)C6)C5)c(OC)n4)c3Cl)c2Cl)ccc1CN1CC2(CC(=O)N(C)C2)C1: 87.5 nM
10) COc1cc(-c2nccc(-c3cccc(-c4ccc(CNC5CCC(F)(F)CC5)c(OC)n4)c3Cl)c2Cl)ccc1CNC1CCC(F)(F)CC1: 178 nM
11) COc1cc(-c2nccc(-c3cccc(-c4ccc(CN5CC[C@H](O)C5)c(OC)n4)c3Cl)c2Cl)ccc1CN1CC[C@H](O)C1: 9.95 nM
12) COc1cc(-c2nccc(-c3cccc(-c4ccc(CNCCO)c(OC)n4)c3Cl)c2Cl)cc2c1CN(CCCF)CC2: 71 nM

* * *

target: human PD-L1 (Homo sapiens (Human), UniProt Q9NZQ7); test: T cell activation luciferase reporter cell culture system (T Cell Activation Assay); format: cell-based; details: luciferase reporter assay; PD-L1 aAPC/CHO-K1 cells with PD-1 effector Jurkat T cells
pEC50: −log10 of the molar value.
PROPERTY: pEC50

1. COc1cc(-c2nccc(-c3cccc(-c4ccc5c(CNC6CCOCC6)cn(C)c5n4)c3Cl)c2Cl)ccc1CN1CC2(C1)CN(C(C)=O)C2: 5.00
2. COc1nc(-c2ccnc(-c3cccc4c3CC[C@@H]4Oc3nc(OC)c(CNC[C@H](C)O)cc3C(F)(F)F)c2Cl)ccc1CNC[C@H](C)O: 7.41
3. COc1nc(-c2ccnc(-c3cccc4c3CC[C@@H]4Oc3nc(OC)c(CNC4CCOCC4)cc3C(F)(F)F)c2Cl)ccc1CNC[C@@H]1CCC(=O)N1: 7.65
